# Test system: K-562 leukemia
# Protocol Description: NCI tumour cell line growth inhibition, 48 h
Measured Quantity: TGI

Examples with answers:
CN(C)c1nc(NN)c2c(-c3ccccc3)c(-c3ccccc3)oc2n1
> 100 µM
C[C@H]1[C@H](C)CC[C@]2(C(=O)O)CC[C@]3(C)C(=CC[C@@H]4[C@@]5(C)C/C(=C/c6ccco6)C(=O)C(C)(C)[C@@H]5CC[C@]43C)[C@H]12
> 100 µM

Here is the next item to consider.
Value lookup for TGI; key = c1cncc(-c2ncc3cccnc3n2)c1
> 100 µM

----------
TGI by entry:
# Test system: DU-145 prostate
# Protocol Description: NCI tumour cell line growth inhibition, 48 h
The answer is to be given in µM; state only the numeric part.

Examples with answers:
COc1cc(/C=C2\COc3ccc(O)c(O)c3C2=O)cc(OC)c1
4.26
C=C1C(=O)O[C@H]2[C@H]1CC/C(COC(=O)NCc1c[nH]c3ccc(Cl)cc13)=C\CC[C@@]1(C)O[C@@H]21
2.65

Value lookup for TGI; key = COC1=CC(c2ccc[nH]2)=N/C1=C\c1ccc[nH]1
13.3

Value lookup for TGI; key = O=C(/C=C\c1ccc(Cl)cc1Cl)c1cccs1
44.9

Value lookup for TGI; key = CCn1cnc2c(Nc3cccc(Cl)c3)nc(N[C@@H]3CCCC[C@@H]3N)nc21
3.15

Value lookup for TGI; key = CC(C)n1c2c([n+](C)c1/C=C/c1ccccc1)C(=O)c1ccccc1C2=O
0.948

----------
# Tested on: MALME-3M melanoma
# Protocol Description: NCI tumour cell line growth inhibition, 48 h
Where a SMILES comes first, the peptide text is derived from it. [ ]: non-standard residue; d: D form. β3hI = CC[CH](C)[CH](N)CC(=O)O
Measured Quantity: TGI

Examples with answers:
c1ccc2c(c1)Nc1nc3nonc3nc1N2
> 100 µM
CCC(C)C(CC(=O)N1CCCC1C(=O)NC(C(=O)NC(C(=O)NCC(=O)NC(CC(N)=O)C(=O)NC(C(=O)NC(C(=O)NC(CCCCN)C(N)=O)C(C)CC)C(C)CC)C(C)C)C(C)CC)NC(=O)C(N)C(C)CC (stereo not drawn) (H-I[β3hI]PIVGNIIK-NH2; configuration not given here)
> 50 µM
COc1ccc(N2C(=O)C3c4[nH]c5cccc(C)c5c4C4CCC(C(C)(C)C)CC4C3C2=O)cc1 (configuration not stated)
> 10 µM
CCOC(=O)c1c(-c2ccc(OC)cc2)c(C#N)c(=S)n(C2OC(CO)C(O)C(O)C2O)c1-c1ccccc1 (configuration not stated)
> 100 µM
CC1=C(C(=O)Nc2ccc(Cl)c(Cl)c2)C(c2ccco2)C(C(=O)Nc2ccc(Cl)c(Cl)c2)=C(C)N1
29.5 µM
Cc1cc(Cl)ccc1N=C1NC(=O)C(CC(=O)Nc2ccc(Cl)cc2Cl)S1 (configuration not stated)
> 100 µM

Here is the next item to consider.
Value lookup for TGI; key = CCCCCCCC/C=C\CCCCCCCC(=O)NCCN(CCN)C(=O)CCCCCCC/C=C\CCCCCCCC
> 100 µM

----------
# Tested on: MCF7 breast
# Protocol Description: NCI tumour cell line growth inhibition, 48 h
TGI by entry:

Examples with answers:
CN(C)c1nc(NN)c2c(-c3ccccc3)c(-c3ccccc3)oc2n1
> 100 µM
COc1cc(C(=O)c2cc3c(cc2C)OCO3)cc(OC)c1OC
> 100 µM
Cc1c2c(n(Cc3ccccn3)c1C)NN=C(C#N)S2(=O)=O
> 100 µM
CS(=O)(=O)Nc1ccc(Nc2c3ccccc3nc3ccccc23)cc1
13 µM
Nc1ncnc2c1ncn2C1OC(CO)=CC1O (stereo unspecified)
> 37.5 µM

Here is the next item to consider.
Value lookup for TGI; key = CCn1cnc2c(Nc3cccc(Cl)c3)nc(N[C@@H]3CCCC[C@@H]3N)nc21
3.23 µM

----------
TGI by entry:
# System: TK-10 renal
# Protocol Description: NCI tumour cell line growth inhibition, 48 h

CC1=C(C(=O)NCc2ccccc2)C(c2ccccc2[N+](=O)[O-])C(C(=O)NCc2ccccc2)=C(C)N1
31.4 µM
COc1ccc2oc(C(=O)N3CC(CCl)c4ccc([N+](=O)[O-])cc43)cc2c1 (stereo unspecified)
> 100 µM
NS(=O)(=O)c1ccc(CCN=C=S)cc1
3.79 µM
COc1ccc(/C=C/c2n[nH]c3ccc(N4CCOC4=O)cc23)cc1
26.2 µM
c1cncc(-c2ncc3cccnc3n2)c1
> 100 µM

Value lookup for TGI; key = CN(C)c1ccc(/C=C(\NC(=O)c2ccccc2)C(=O)NC(CCC(=O)O)C(=O)O)cc1 (stereo unspecified)
> 100 µM

Value lookup for TGI; key = COC(=O)C1=C(CO)C2C=CC1C2 (stereo unspecified)
> 100 µM

Value lookup for TGI; key = CC1OC(OCC2COC(O)(Oc3c(-c4ccc(O)c(O)c4)oc4cc(O)cc(O)c4c3=O)C(O)C2O)C(O)C(O)C1O (stereo unspecified)
> 100 µM

Value lookup for TGI; key = COc1ccc2c(c1)CC[C@@H]1[C@@H]2CC[C@]2(C)C(c3ccco3)=C(C=O)C[C@@H]12
21.2 µM

Value lookup for TGI; key = CSc1nc2sc3cc(Cl)ccc3n2c(=N)c1C#N
> 73.3 µM

Value lookup for TGI; key = CC(C)=CC(=O)Cc1nc2cc(C)c(C)cc2[nH]c1=O
> 100 µM

Value lookup for TGI; key = O=C(OC(=C(c1ccccc1)c1ccccc1)N1CCCC1=S)C(c1ccccc1)c1ccccc1
> 10 µM

Value lookup for TGI; key = CC1(C)CN=C(Nc2cccc(C(F)(F)F)c2)S1
> 100 µM

Value lookup for TGI; key = O=C1OC(O)C(Oc2ccc(Cl)cc2)=C1Cl (stereo unspecified)
> 100 µM

Value lookup for TGI; key = CC(CO)C1=CC(C#CCOCc2ccccc2)N(C(=O)Oc2ccccc2)c2ccccc21 (stereo unspecified)
> 100 µM

Value lookup for TGI; key = CC(C)(C)C(=O)C1CC(=O)c2ccccc2C1=O (stereo unspecified)
> 100 µM

Value lookup for TGI; key = C[C@@]12CCC(=O)C=C1CC[C@H]1C2=CC[C@]2(C)C1CC[C@@]2(C)O (stereo partly specified)
> 100 µM

Value lookup for TGI; key = CC(C)OP(=O)(OC(C)C)C(=Nc1ccccc1)NNc1ccc([N+](=O)[O-])cc1
46.2 µM

Value lookup for TGI; key = ClC1=C(Cc2ccccc2)Cc2ccc3c(c21)CCC3
> 100 µM

Value lookup for TGI; key = CCOC(=O)C1=c2[nH]c3cccc4cccc(c43)n2C=C(C(C)=O)C1CC(C)=O (stereo unspecified)
> 100 µM

Value lookup for TGI; key = Cc1ccc(Cl)c(NC(=O)C(=O)C(C(=O)c2ccncc2)C2OC(=O)c3ccccc32)c1 (stereo unspecified)
> 100 µM

----------
# System: OVCAR-8 ovarian
# Protocol Description: NCI tumour cell line growth inhibition, 48 h
Measured Quantity: TGI (µM)
The answer is to be given in µM; state only the numeric part.

Examples with answers:
COc1ccc([N+](=O)[O-])c(S(=O)(=O)c2ccc(Cl)cc2)n1
15.9
COc1ccc2c(c1)CC[C@@H]1[C@@H]2CC[C@]2(C)C(c3ccco3)=C(C=O)C[C@@H]12
74.2

Value lookup for TGI; key = CCOC(=O)CCC(NC(=O)Cc1ccc(Oc2nc3ccccc3nc2-c2cccs2)cc1)C(=O)OCC (stereo not given)
14.2

----------
# Tested on: U251 CNS
Hi! Could you answer with just one of these? 1 (active), 0 (inactive)

See these solved cases before continuing.
N.N.NCCCCN.O=C([O-])C1(C(=O)[O-])CCC1.O=C([O-])C1(C(=O)[O-])CCC1.[Pt+4].[Pt+4]
0
C[C@H]1[C@H](C)CC[C@]2(C(=O)O)CC[C@]3(C)C(=CC[C@@H]4[C@@]5(C)C/C(=C/c6ccco6)C(=O)C(C)(C)[C@@H]5CC[C@]43C)[C@H]12
0
COC1=CC(c2ccc[nH]2)=N/C1=C\c1ccc[nH]1
1

What was the test verdict on Cc1ccc(C)c(-c2csc(Nc3ccc(C)c(C)c3)n2)c1 ?
0

What was the test verdict on COc1ccc(C2=NN(C(C)=O)C(c3cn(-c4ccccc4)nc3-c3ccc(Cl)cc3)C2)cc1 (stereo not given) ?
0

What was the test verdict on COc1ccc(/C=C/c2n[nH]c3ccc(N4CCOC4=O)cc23)cc1 ?
0

What was the test verdict on C=C(C)[C@@H]1CC[C@]2(C)[C@H](CC[C@@H]3[C@H]4[C@H]5OC[C@@]4(CCC5(C)C)CC[C@]32C)[C@@]1(C)CCCN ?
0

What was the test verdict on COC1=CC(c2ccc[nH]2)=N/C1=C\c1[nH]c(C)c(C(=O)CCCCC(=O)Nc2ccccc2)c1C ?
0

What was the test verdict on COc1ccc(-c2nc(-c3nc4ccc(OC)cc4[nH]3)cc3c2[nH]c2ccccc23)cc1 ?
0

What was the test verdict on CCOC(=O)c1sc(=S)c2c(C(=O)OCC)c(C(=O)OCC)sc2c1C(=O)OCC ?
0
